- System: L1210 leukemia ip in BDF1 mice, survival T/C
- TEST_DESCRIPTION: NCI In Vivo Anticancer Drug Screen. Data for tumor model L1210 Leukemia (intraperitoneal) in B6D2F1 (BDF1) mice
- CONDITION_CONTEXT: endpoint: mean survival time; dose: 200.0 mg/kg/injection; schedule: Q01DX001 (ip); vehicle: saline with Tween-80; higher = longer survival
Toxic doses and inconclusive results are not listed.
READOUT_TYPE: T/C

{"COMPOUND": "O=C(Nc1cccc(Cl)c1)SCCSC(=O)Nc1cccc(Cl)c1", "VALUE": "93 % of control"}
{"COMPOUND": "Nc1cc(SC(c2ccccc2)c2ccccc2)c([N+](=O)[O-])c(N)n1", "VALUE": "101 % of control"}
{"COMPOUND": "O=[N+]([O-])c1ccc(/C=C/c2ccccc2)c(Cl)c1", "VALUE": "102 % of control"}
{"COMPOUND": "NC(=O)c1cn[nH]c1/N=N/N1CCCC1C(=O)O (configuration not stated)", "VALUE": "107 % of control"}
{"COMPOUND": "CCCCCc1[nH]c(=O)[nH]c(=O)c1N=Nc1ccccc1", "VALUE": "97 % of control"}
{"COMPOUND": "O=C(O)CC1CCCCC1NC(=O)c1ccccc1 (configuration not stated)", "VALUE": "94 % of control"}
{"COMPOUND": "COc1c(C)c(C)c(OC)c(Br)c1C", "VALUE": "102 % of control"}
{"COMPOUND": "c1ccc(Pc2ccccc2)cc1", "VALUE": "105 % of control"}
{"COMPOUND": "c1ccc([CH2][Pb]([c]2ccccc2)([c]2ccccc2)[c]2ccccc2)cc1", "VALUE": "108 % of control"}
{"COMPOUND": "O=C1c2ccccc2-c2ccc(NC(=O)C(F)(F)F)cc21", "VALUE": "90 % of control"}
{"COMPOUND": "COc1cc2c(cc1OC)CN1CCC(=O)CC1C2 (configuration not stated)", "VALUE": "102 % of control"}
{"COMPOUND": "CC1CCC(C(C)C)/C(=N\\O)C1 (configuration not stated)", "VALUE": "97 % of control"}
{"COMPOUND": "[C-]#[N+]CCc1ccccc1", "VALUE": "96 % of control"}
{"COMPOUND": "CCOC(=O)c1ccc(NC(=O)c2ccc(Cl)c(Cl)c2)cc1", "VALUE": "115 % of control"}
{"COMPOUND": "CCOC(=O)C(c1ccsc1)C(C(=O)OCC)c1cccs1 (configuration not stated)", "VALUE": "98 % of control"}
{"COMPOUND": "COc1ccc(Cl)cc1NC(=O)OCC(Cl)(Cl)Cl", "VALUE": "94 % of control"}
{"COMPOUND": "CC(C)(C)OOC(=O)Nc1ccc(Cl)cc1", "VALUE": "89 % of control"}
{"COMPOUND": "CC(C)C(=O)Nc1cccc(OC(=O)NC(C)(C)C)c1", "VALUE": "89 % of control"}
{"COMPOUND": "O=NN(CCCl)C(=O)NC1CCC(O)CC1 (configuration not stated)", "VALUE": "87 % of control"}
{"COMPOUND": "CCCCCCCCCCCC(CCCC)CCCC", "VALUE": "104 % of control"}
{"COMPOUND": "ON=C1CCC(=NO)CC1", "VALUE": "98 % of control"}
{"COMPOUND": "CC(=O)OCC(I)CC(F)(F)C(F)(F)C(F)(F)F (configuration not stated)", "VALUE": "103 % of control"}
